Values compiled from patent US20240174680A1.

Target: CDK2/Cyclin E1 (Homo sapiens)
Experiment: CDK2/Cyclin E1 Caliper LabChip EZ Reader mobility shift assay
Assay type: biochemical
Set-up: purchased Eurofins 14-475
Conditions: read-out: Caliper Assay (CDK2/CCNE1): IC50
endpoint: IC50

(Q) Report value only: IC50, CDK2/Cyclin E1 (Homo sapiens), "CC1(C)C[C@@H]1C(=O)N1CC2(CN(C(=O)c3cnn(Cc4ccccc4)c3)C[C@H]2C(=O)N2CCN(CC3CCCCC3)C(=O)C2)C1"
(A) 100 to 1000 nM

(Q) Report value only: IC50, CDK2/Cyclin E1 (Homo sapiens), "CC1(C)C[C@@H]1C(=O)N1CC2(CN(C(=O)c3cnn(Cc4ccccc4)c3)C[C@H]2C(=O)NCc2ccc(O)nn2)C1"
(A) > 10000 nM

(Q) Report value only: IC50, CDK2/Cyclin E1 (Homo sapiens), C[C@@H](OCc1ccccc1)[C@H](NC(=O)C1CN(C(=O)c2cnn(Cc3ccccc3)c2)CC12CN(C(=O)[C@H]1CC1(C)C)C2)C(=O)N1CCOCC1 (some centres unmarked)
(A) 10 to 100 nM

(Q) Report value only: IC50, CDK2/Cyclin E1 (Homo sapiens), CNC(=O)[C@@H](NC(=O)[C@@H]1CN(C(=O)c2cnc(C(F)(F)F)s2)CC12CN(C(=O)[C@H]1CC1(C)C)C2)[C@@H](C)OCC1CCCCC1 [I-161A]
(A) > 10000 nM

(Q) Report value only: IC50, CDK2/Cyclin E1 (Homo sapiens), CC1(C)C[C@@H]1C(=O)N1CC2(CN(C(=O)c3cnn(Cc4ccccc4)c3)C[C@H]2C(=O)N[C@@H]2CC[C@@H]2O)C1 [I-201B]
(A) > 10000 nM

(Q) Report value only: IC50, CDK2/Cyclin E1 (Homo sapiens), CC1(C)C[C@@H]1C(=O)N1CC2(CN(C(=O)c3cncs3)C[C@H]2C(=O)NC(c2cccc(C3CCCCC3)n2)C2COCCO2)C1 (some centres unmarked)
(A) 10 to 100 nM

(Q) Report value only: IC50, CDK2/Cyclin E1 (Homo sapiens), CNC(=O)[C@@H](NC(=O)[C@@H]1CN(C(=O)c2cnn(CC3CCN(C)CC3)c2)CC12CN(C(=O)[C@H]1CC1(C)C)C2)[C@@H](C)OCc1ccccc1 [I-23A]
(A) 1000 to 10000 nM

(Q) Report value only: IC50, CDK2/Cyclin E1 (Homo sapiens), C[C@@H](OCC1CCC(F)(F)CC1)[C@H](NC(=O)C1CN(C(=O)c2cncs2)CC12CN(C(=O)[C@H]1CC1(C)C)C2)C(=O)N1CCC(OC(F)(F)F)CC1 (some centres unmarked)
(A) ≤ 10 nM

(Q) Report value only: IC50, CDK2/Cyclin E1 (Homo sapiens), CNC(=O)[C@@H](NC(=O)[C@@H]1CN(C(=O)c2n[nH]c3ccccc23)CC12CN(C(=O)[C@H]1CC1(C)C)C2)[C@@H](C)OCc1ccccc1 [I-112A]
(A) 1000 to 10000 nM

(Q) Report value only: IC50, CDK2/Cyclin E1 (Homo sapiens), "COC[C@H]1CCCN(C(=O)[C@@H](NC(=O)[C@@H]2CN(C(=O)c3cncs3)CC23CN(C(=O)[C@H]2CC2(C)C)C3)[C@@H](C)OCc2ccc(Cl)cc2F)C1"
(A) ≤ 10 nM

(Q) Report value only: IC50, CDK2/Cyclin E1 (Homo sapiens), CNC(=O)[C@@H](NC(=O)[C@H]1CN(Cc2cccnc2)CC12CN(C(=O)[C@H]1CC1(C)C)C2)[C@@H](C)OCc1ccccc1 [I-49B]
(A) > 10000 nM

(Q) Report value only: IC50, CDK2/Cyclin E1 (Homo sapiens), "CNC(=O)[C@@H](NC(=O)[C@@H]1CN(C(=O)c2cnn(Cc3ccccc3)c2)CC12CN(C(=O)[C@H]1CC1(C)C)C2)[C@@H](C)OCC1CCC(C)(C)CC1"
(A) ≤ 10 nM

(Q) Report value only: IC50, CDK2/Cyclin E1 (Homo sapiens), COCC1CCCN(C(=O)[C@@H](NC(=O)C2CN(C(=O)c3cnn(Cc4ccccc4)c3)CC23CN(C(=O)[C@H]2CC2(C)C)C3)[C@@H](C)OCc2ccccc2)C1 (some centres unmarked)
(A) 10 to 100 nM

(Q) Report value only: IC50, CDK2/Cyclin E1 (Homo sapiens), "C[C@@H](OCC12CCC(CC1)OC2)[C@H](NC(=O)[C@@H]1CN(C(=O)c2cncs2)CC12CN(C(=O)[C@H]1CC1(C)C)C2)C(=O)N1CCC(C)(C)CC1"
(A) ≤ 10 nM
